Experiment: Non-reducing SDS-PAGE thermostability, oligomeric forms after boiling
Type: physicochemical
Conditions: boiled 20 minutes

molecule	Monomeric form, relative proportion (percentage)
AVR4/5: Recombinant chicken avidin-related protein 4/5 (AVR4 and AVR5 identical in coding sequence) (protein, UniProt P56734 25-150, looked up) Avidin-related protein 4/5: ARKCSLTGKWTNNLGSIMTIRAVNSRGEFTGTYLTAVADNPGNITLSPLLGIQHKRASQPTFGFTVHWNFSESTTVFTGQCFIDRNGKEVLKTMWLLRSSVNDISYDWKATRVGYNNFTRLCTVEE	50
AVR3: Recombinant chicken avidin-related protein 3, produced in Sf9 insect cells (protein, UniProt P56733 25-150, looked up) Avidin-related protein 3: ARKCSLTGKWTNNLGSIMTIRAVNSRGEFAGTYLTAVADNPGNIKLSPLLGIQHKRACQPTFGFTVHWNFSESTSVFVGQCFIDRSGKEVLKTKWLQRLAVDDISDDWKATRVGYNNFTRQRTVEE	50
